protocolSummary: Non-GLP monkey pharmacokinetics
Type: in vivo
conditionLabel: cynomolgus monkey, plasma; cynomolgus monkeys, IV 1 mg/kg, average of 3

>  <cpdSmiles>
CN(C)[C@@H]1C(O)=C(C(N)=O)C(=O)[C@@]2(O)C(O)=C3C(=O)c4c(O)c5c(c(F)c4C[C@H]3C[C@@H]12)CN(C(C)(C)C)C5

>  <unitSymbol>
ng·h/mL

>  <AUC(0-t)>
4850

$$$$

* * *

protocolSummary: Non-GLP monkey pharmacokinetics
Assay type: in vivo
conditionLabel: cynomolgus monkey, plasma; cynomolgus monkeys, PO 10 mg/kg, average of 3
reportedMetric: AUC(0-inf) (ng·h/mL)

>  <cpdSmiles>
CN(C)[C@@H]1C(O)=C(C(N)=O)C(=O)[C@@]2(O)C(O)=C3C(=O)c4c(O)c5c(c(F)c4C[C@H]3C[C@@H]12)CN(C(C)(C)C)C5

>  <numericResult>
35400

$$$$

* * *

protocolSummary: Non-GLP monkey pharmacokinetics
Format: in vivo
conditionLabel: cynomolgus monkey, plasma; cynomolgus monkeys, IV 1 mg/kg, average of 3; read-out: Vdss

>  <compound>
CN(C)[C@@H]1C(O)=C(C(N)=O)C(=O)[C@@]2(O)C(O)=C3C(=O)c4c(O)c5c(c(F)c4C[C@H]3C[C@@H]12)CN(C(C)(C)C)C5 [Compound 102]

>  <unitSymbol>
L/kg

>  <Vd>
3.4

$$$$

* * *

Recorded measurements of MIC90, one per entry
System: Gram-negative and Gram-positive organisms (clinical isolates)
protocolSummary: Broth microdilution MIC against clinical isolates (CLSI M7-A8), Table 9
Type: cell-based
conditionLabel: Streptococcus sanguis, n=18; read-out: MIC90

>  <cpdSmiles>
CN(C)[C@@H]1C(O)=C(C(N)=O)C(=O)[C@@]2(O)C(O)=C3C(=O)c4c(O)c5c(c(F)c4C[C@H]3C[C@@H]12)CN(C(C)(C)C)C5

>  <targetDesc>
Gram-negative and Gram-positive organisms (clinical isolates)

>  <MIC90 (µg/mL)>
0.12

$$$$
>  <cpdSmiles>
C[C@H]1COc2c(N3CCN(C)CC3)c(F)cc3c(=O)c(C(=O)O)cn1c23

>  <targetDesc>
Gram-negative and Gram-positive organisms (clinical isolates)

>  <MIC90 (µg/mL)>
2

$$$$
>  <cpdSmiles>
CC(=O)NC[C@H]1CN(c2ccc(N3CCOCC3)c(F)c2)C(=O)O1

>  <targetDesc>
Gram-negative and Gram-positive organisms (clinical isolates)

>  <MIC90 (µg/mL)>
1

$$$$
>  <cpdSmiles>
C[C@@H](O)[C@H]1C(=O)N2C(C(=O)O)=C(S[C@@H]3CN[C@H](C(=O)Nc4cccc(C(=O)O)c4)C3)[C@H](C)[C@H]12

>  <targetDesc>
Gram-negative and Gram-positive organisms (clinical isolates)

>  <MIC90 (µg/mL)>
0.5

$$$$
>  <cpdSmiles>
CN[C@H](CC(C)C)C(=O)N[C@H]1C(=O)N[C@@H](CC(N)=O)C(=O)N[C@H]2C(=O)N[C@H]3C(=O)N[C@H](C(=O)N[C@H](C(=O)O)c4cc(O)cc(O)c4-c4cc3ccc4O)[C@H](O)c3ccc(c(Cl)c3)Oc3cc2cc(c3O[C@@H]2O[C@H](CO)[C@@H](O)[C@H](O)[C@H]2O[C@H]2C[C@](C)(N)[C@H](O)[C@H](C)O2)Oc2ccc(cc2Cl)[C@H]1O

>  <targetDesc>
Gram-negative and Gram-positive organisms (clinical isolates)

>  <MIC90 (µg/mL)>
1

$$$$

* * *

protocolSummary: Non-GLP monkey pharmacokinetics
Type: in vivo
conditionLabel: cynomolgus monkey, plasma; cynomolgus monkeys, PO 10 mg/kg, average of 3; read-out: T½ (converted)

>  <compound>
CN(C)[C@@H]1C(O)=C(C(N)=O)C(=O)[C@@]2(O)C(O)=C3C(=O)c4c(O)c5c(c(F)c4C[C@H]3C[C@@H]12)CN(C(C)(C)C)C5 [Compound 102]

>  <unitSymbol>
h

>  <half-life>
24.8

$$$$

* * *

Recorded measurements of MIC90, one per entry
Tested on: Gram-negative and Gram-positive organisms (clinical isolates)
protocolSummary: Broth microdilution MIC against clinical isolates (CLSI M7-A8), Table 9
Format: cell-based
conditionLabel: Proteus vulgaris, n=29

>  <compound>
C[C@H]1COc2c(N3CCN(C)CC3)c(F)cc3c(=O)c(C(=O)O)cn1c23 [Levofloxacin, levofloxacin]

>  <relationOperator>
=

>  <MIC90 (µg/mL)>
1

$$$$
>  <compound>
C[C@@H](O)[C@H]1C(=O)N2C(C(=O)O)=C(S[C@@H]3CN[C@H](C(=O)Nc4cccc(C(=O)O)c4)C3)[C@H](C)[C@H]12 [Ertapenem]

>  <relationOperator>
≤

>  <MIC90 (µg/mL)>
1

$$$$
>  <compound>
CN(C)c1cc(NC(=O)CNC(C)(C)C)c(O)c2c1C[C@H]1C[C@H]3[C@H](N(C)C)C(O)=C(C(N)=O)C(=O)[C@@]3(O)C(O)=C1C2=O [Tigecycline, tigecycline]

>  <relationOperator>
=

>  <MIC90 (µg/mL)>
4

$$$$
>  <compound>
CC(C)(O/N=C(\C(=O)N[C@@H]1C(=O)N2C(C(=O)[O-])=C(C[n+]3ccccc3)CS[C@H]12)c1csc(N)n1)C(=O)O [Ceftazidime]

>  <relationOperator>
>

>  <MIC90 (µg/mL)>
64

$$$$

* * *

Test system: E. coli DH10B EC969 TetM
protocolSummary: MIC, E. coli DH10B recombinantly expressing tetracycline-resistance gene; note: unit not given here
conditionLabel: arabinose-induced, ampicillin in medium

>  <cpdSmiles>
CN(C)c1ccc(O)c2c1C[C@H]1C[C@H]3[C@H](N(C)C)C(O)=C(C(N)=O)C(=O)[C@@]3(O)C(O)=C1C2=O

>  <MIC EC969 TetM>
64

$$$$
>  <cpdSmiles>
CN(C)[C@@H]1C(O)=C(C(N)=O)C(=O)[C@@]2(O)C(O)=C3C(=O)c4c(O)c5c(c(F)c4C[C@H]3C[C@@H]12)CN(C(C)(C)C)C5

>  <MIC EC969 TetM>
1

$$$$
>  <cpdSmiles>
CN(C)[C@@H]1C(O)=C(C(N)=O)C(=O)[C@@]2(O)C(O)=C3C(=O)c4c(O)cccc4[C@@](C)(O)[C@H]3C[C@@H]12

>  <MIC EC969 TetM>
64

$$$$
>  <cpdSmiles>
CN(C)c1cc(NC(=O)CNC(C)(C)C)c(O)c2c1C[C@H]1C[C@H]3[C@H](N(C)C)C(O)=C(C(N)=O)C(=O)[C@@]3(O)C(O)=C1C2=O

>  <MIC EC969 TetM>
0.125

$$$$
>  <cpdSmiles>
CO/N=C(\C(=O)N[C@@H]1C(=O)N2C(C(=O)O)=C(CSc3nc(=O)c(=O)[nH]n3C)CS[C@H]12)c1csc(N)n1

>  <MIC EC969 TetM>
0.5

$$$$

* * *

System: Gram-negative and Gram-positive organisms (clinical isolates)
protocolSummary: Broth microdilution MIC against clinical isolates (CLSI M7-A8), Table 9
Assay type: cell-based
conditionLabel: Serratia marcescens, n=30
Recorded measurements of MIC50, one per entry

>  <cpdSmiles>
C[C@@H](O)[C@H]1C(=O)N2C(C(=O)O)=C(S[C@@H]3CN[C@H](C(=O)Nc4cccc(C(=O)O)c4)C3)[C@H](C)[C@H]12

>  <MIC50>
≤ 1 µg/mL

$$$$
>  <cpdSmiles>
C[C@H]1COc2c(N3CCN(C)CC3)c(F)cc3c(=O)c(C(=O)O)cn1c23

>  <MIC50>
≤ 0.25 µg/mL

$$$$
>  <cpdSmiles>
CC(C)(O/N=C(\C(=O)N[C@@H]1C(=O)N2C(C(=O)[O-])=C(C[n+]3ccccc3)CS[C@H]12)c1csc(N)n1)C(=O)O

>  <MIC50>
≤ 0.5 µg/mL

$$$$
>  <cpdSmiles>
CN(C)c1cc(NC(=O)CNC(C)(C)C)c(O)c2c1C[C@H]1C[C@H]3[C@H](N(C)C)C(O)=C(C(N)=O)C(=O)[C@@]3(O)C(O)=C1C2=O

>  <MIC50>
1 µg/mL

$$$$

* * *

Test system: Gram-negative and Gram-positive organisms (clinical isolates)
protocolSummary: Broth microdilution MIC against clinical isolates (CLSI M7-A8), Table 9
Assay type: cell-based
conditionLabel: Proteus vulgaris, n=29

>  <cpdSmiles>
CC(C)(O/N=C(\C(=O)N[C@@H]1C(=O)N2C(C(=O)[O-])=C(C[n+]3ccccc3)CS[C@H]12)c1csc(N)n1)C(=O)O

>  <MIC50>
≤ 0.5 µg/mL

$$$$
>  <cpdSmiles>
C[C@@H](O)[C@H]1C(=O)N2C(C(=O)O)=C(S[C@@H]3CN[C@H](C(=O)Nc4cccc(C(=O)O)c4)C3)[C@H](C)[C@H]12

>  <MIC50>
≤ 1 µg/mL

$$$$
>  <cpdSmiles>
CN(C)c1cc(NC(=O)CNC(C)(C)C)c(O)c2c1C[C@H]1C[C@H]3[C@H](N(C)C)C(O)=C(C(N)=O)C(=O)[C@@]3(O)C(O)=C1C2=O

>  <MIC50>
2 µg/mL

$$$$
>  <cpdSmiles>
C[C@H]1COc2c(N3CCN(C)CC3)c(F)cc3c(=O)c(C(=O)O)cn1c23

>  <MIC50>
≤ 0.25 µg/mL

$$$$
